This section lists IC50 readings for BTK kinase (Homo sapiens).
outcome-measure: IC50 (nM)

Before answering, review these 5 worked examples.
> print(dat)
                                   molecule        experimental.system  outcome.measure  measurement.unit  observed.result
1  CC(C)Oc1c2c(n3c1C(=O)N(c1nccc(-c4cc(Nc5ccc(N6CCN(C7COC7)C[C@@H]6C)cn5)c(=O)n(C)c4)c1CO)CC3)CC(C)(C)C2  BTK kinase (Homo sapiens)             IC50                nM             0.65
2  Cn1cc(-c2ccnc(N3CCn4c5c(c(F)c4C3=O)CC(C)(C)C5)c2CO)cc(Nc2ccc(N3CCC4(CC3)CC(O)C4)cn2)c1=O  BTK kinase (Homo sapiens)             IC50                nM             0.18
3  CNc1c2c(n3c1C(=O)N(c1nccc(-c4cc(Nc5ccc(N6CCN(C7COC7)C[C@@H]6C)cn5)c(=O)n(C)c4)c1CO)CC3)CC(C)(C)C2  BTK kinase (Homo sapiens)             IC50                nM             0.46
4  C[C@H]1CN(C2COC2)CCN1c1ccc(Nc2cc(-c3cc(C#N)cc(N4CCn5c(cc6c5CC(C)(C)C6)C4=O)c3CO)cn(C)c2=O)nc1  BTK kinase (Homo sapiens)             IC50                nM             0.69
5  CN1CC2(CCN(c3ccc(Nc4cc(-c5ccnc(N6CCn7c8c(c(F)c7C6=O)CC(C)(C)C8)c5CO)cn(C)c4=O)nc3)CC2)C1  BTK kinase (Homo sapiens)             IC50                nM             0.49

I. CC1(C)Cc2cc3n(c2C1)CCN(c1nccc(-c2cc(Nc4ccc(N5CCN(C6COC6)CC5)cn4)c4occc4n2)c1CO)C3=O
II. C[C@H]1CN(C2COC2)CCN1c1ccc(Nc2cc(-c3ccnc(N4CCn5c6c(c(N)c5C4=O)CC(C)(C)C6)c3CO)cn(C)c2=O)nc1
III. Cn1cc(-c2ccnc(N3CCn4c5c(c(F)c4C3=O)CC(C)(C)C5)c2CO)cc(Nc2ccc(N3CCN(C4COC4)CC3)nc2)c1=O
Ordering: ascending IC50. Response field: labels, in requested order.
III, II, I
(III: 0.17 nM, II: 0.44 nM, I: 0.71 nM)

====

# Test system: tumour cells (A20 5E6 cells)
# measurement-notes: Inhibitory effect on tumour cell proliferation (CCK8)
# Format: cell-based
# condition-description: CCK8 absorbance, read-out: Inhibitory effect of the compound on cell proliferation IC50
pIC50: −log10 of the molar value.
outcome-measure: pIC50

> print(dat)
                                   compound  observed.result
1  C[C@H]1CN(C2COC2)CCN1c1ccc(Nc2cc(-c3c(C#N)ccc(N4CCn5c(cc6c5CC(C)(C)C6)C4=O)c3CO)cn(C)c2=O)nc1             7.40
2  C=CC(=O)N1CCC[C@@H](n2nc(-c3ccc(Oc4ccccc4)cc3)c3c(N)ncnc32)C1 [Ibrutinib, reference compound]             7.06

A. Cn1cc(-c2ccnc(N3CCn4c5c(c(F)c4C3=O)CC(C)(C)C5)c2CO)cc(Nc2ccc(N3CCN(C4COC4)CC3)cc2)c1=O
B. CN1CCN(c2ccc(Nc3cc(-c4ccnc(N5CCn6c7c(c(F)c6C5=O)CC(C)(C)C7)c4CO)cn(C)c3=O)nc2)CC1
Recorded pIC50 values differ for A and B ; which one is higher? Write the label of whichever entry you select.
A

1. Cn1cc(-c2ccnc(N3CCn4c5c(c(F)c4C3=O)CC(C)(C)C5)c2CO)cc(Nc2ccc(N3CCC4(CC3)CC(O)C4)cn2)c1=O
2. CC1(C)Cc2cc3n(c2C1)CCN(c1nccc(-c2cc(Nc4ccc(N5CCN(C6COC6)CC5)cn4)c4occc4n2)c1CO)C3=O
Between the entries labeled 1 and 2 , whose measured pIC50 is lower? Write the label of whichever entry you select.
2

====

# experimental-system: BTK kinase (Homo sapiens, UniProt Q06187)
# Sequence (Q06187 whole entry): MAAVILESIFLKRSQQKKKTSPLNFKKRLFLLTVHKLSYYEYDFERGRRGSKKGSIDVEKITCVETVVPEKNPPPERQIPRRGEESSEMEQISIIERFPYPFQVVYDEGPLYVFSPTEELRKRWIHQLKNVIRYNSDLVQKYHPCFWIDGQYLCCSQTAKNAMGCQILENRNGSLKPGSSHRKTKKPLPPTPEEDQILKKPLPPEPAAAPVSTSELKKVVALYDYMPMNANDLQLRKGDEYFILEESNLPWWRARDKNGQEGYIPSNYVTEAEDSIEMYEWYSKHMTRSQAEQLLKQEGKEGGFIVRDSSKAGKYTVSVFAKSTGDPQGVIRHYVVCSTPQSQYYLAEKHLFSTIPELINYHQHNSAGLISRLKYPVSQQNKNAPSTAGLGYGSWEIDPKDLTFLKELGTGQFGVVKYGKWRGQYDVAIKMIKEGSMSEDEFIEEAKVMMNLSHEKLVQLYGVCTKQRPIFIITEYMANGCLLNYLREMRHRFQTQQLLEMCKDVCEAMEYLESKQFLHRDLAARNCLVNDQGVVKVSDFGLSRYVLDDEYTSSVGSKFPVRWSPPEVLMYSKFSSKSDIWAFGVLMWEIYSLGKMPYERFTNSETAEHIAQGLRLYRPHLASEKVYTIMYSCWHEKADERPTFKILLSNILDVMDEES
pIC50: −log10 of the molar value.
outcome-measure: pIC50

> print(dat)
                                   molecule  observed.result
1  Cn1cc(-c2ccnc(N3CCn4c5c(c(F)c4C3=O)CC(C)(C)C5)c2CO)cc(Nc2ccc(N3CCN(C4COC4)CC3)cn2)c1=O             9.68
2  CN1CCN(c2ccc(Nc3cc(-c4ccnc(N5CCn6c7c(c(F)c6C5=O)CC(C)(C)C7)c4CO)cn(C)c3=O)nc2)CC1             9.57
3  C[C@H]1CN(C2COC2)CCN1c1ccc(Nc2cc(-c3ccnc(N4CCn5c6c(c(F)c5C4=O)CC(C)(C)C6)c3CO)cn(C)c2=O)nc1             9.64

====

# Tested on: tumour cells (A20 5E6 cells)
# measurement-notes: Inhibitory effect on tumour cell proliferation (CCK8)
# Assay type: cell-based
# condition-description: CCK8 absorbance, read-out: Inhibitory effect of the compound on cell proliferation IC50
pIC50: −log10 of the molar value.
outcome-measure: pIC50

Before answering, review these 3 worked examples.
> print(dat)
                                   molecule           experimental.system  observed.result
1  CC(C)n1cc(-c2ccnc(N3CCn4c(cc5c4CC(C)(C)C5)C3=O)c2CO)cc(Nc2ccc(N3CCN(C4COC4)C[C@@H]3C)cn2)c1=O  tumour cells (A20 5E6 cells)             7.59
2  CN1CCN(c2ccc(Nc3cc(-c4ccnc(N5CCn6c(cc7c6CC(C)(C)C7)C5=O)c4CO)nc4ccoc34)nc2)CC1  tumour cells (A20 5E6 cells)             7.54
3  Cn1cc(-c2ccnc(N3CCn4c5c(c(F)c4C3=O)CC(C)(C)C5)c2CO)cc(Nc2ccc(N3CCN(C4COC4)CC3)cn2)c1=O  tumour cells (A20 5E6 cells)             7.68

P. C[C@H]1CN(C2COC2)CCN1c1ccc(Nc2cc(-c3cc(C#N)cc(N4CCn5c(cc6c5CC(C)(C)C6)C4=O)c3CO)cn(C)c2=O)nc1
Q. CN1CC2(CCN(c3ccc(Nc4cc(-c5ccnc(N6CCn7c8c(c(F)c7C6=O)CC(C)(C)C8)c5CO)cn(C)c4=O)nc3)CC2)C1
R. Cn1cc(-c2ccnc(N3CCn4c5c(c(F)c4C3=O)CC(C)(C)C5)c2CO)cc(Nc2ccc(N3CCN(C4COC4)CC3)nc2)c1=O
Ordering: ascending pIC50. Response field: labels, in requested order.
R, P, Q
